- TARGET: Cytochrome P450 3A4 (Homo sapiens) (UniProt P08684)
- Sequence (P08684 whole entry, looked up): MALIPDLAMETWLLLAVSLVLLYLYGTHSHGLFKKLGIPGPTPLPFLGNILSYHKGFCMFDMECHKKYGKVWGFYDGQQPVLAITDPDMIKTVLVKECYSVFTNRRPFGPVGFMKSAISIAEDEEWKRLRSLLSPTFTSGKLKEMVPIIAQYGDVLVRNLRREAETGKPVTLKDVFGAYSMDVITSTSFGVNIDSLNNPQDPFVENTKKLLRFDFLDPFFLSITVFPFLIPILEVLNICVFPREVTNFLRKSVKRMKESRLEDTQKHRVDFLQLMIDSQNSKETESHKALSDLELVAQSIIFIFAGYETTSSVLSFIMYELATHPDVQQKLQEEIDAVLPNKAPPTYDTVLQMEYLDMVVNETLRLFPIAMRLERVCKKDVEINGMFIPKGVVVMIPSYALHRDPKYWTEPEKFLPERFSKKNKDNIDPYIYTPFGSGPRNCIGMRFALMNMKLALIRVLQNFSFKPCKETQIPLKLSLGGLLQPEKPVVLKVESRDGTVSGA
- RUN_DESCRIPTION: qHTS Assay for Activators of Cytochrome P450 3A4 (AID 885); further: nearly all actives have a fitted effect of over 65% in size
- CONDITION_DESCRIPTION: recombinant CYP3A4, Luciferin-PPXE luminescence, 60 min; series mostly up to 57.1 µM
The source made the active and inactive calls. The call rests on the fitted dose curve; in most records, active means well fitted activation curve with a large enough effect; inconclusive means small, poorly fitted or top-dose-only effect; inactive means no such curve, though single readings can be large or run the other way.
Please answer using one outcome listed in active, inactive

Q: # lookup: test call for "Cc1noc(C)c1-c1ccc2ncnc(N3CCN(C)CC3)c2c1"
Ans: inactive

Q: // outcome(item) with item = "N#Cc1cccc(NC(=O)N2CCC3(CC2)CCN(C(=O)c2csnn2)CC3)c1"
Ans: inactive

Q: Test call for this compound, please: "O=C(c1ccco1)N1CCC2(CC1)CN(C(c1ccccc1)c1ccccc1)C2"
Ans: active

Q: Dear all, I need the recorded test outcome for "Fc1ccc(Nc2ncncc2-c2ccccc2C(F)(F)F)cc1" , thank you.
Ans: inactive

Q: Returns: the outcome recorded for "O=C(c1ccco1)N1CCC[C@@]2(CCN(Cc3ccccc3)C2)C1" in this assay.
Ans: inactive

Q: Please state the recorded outcome for this compound: "FC(F)(F)c1ccccc1-c1nc(NCc2cccs2)c2ccccc2n1"
Ans: inactive

Q: Any idea what this test logged for CCCCNc1nc(C)nc2c1nc(-c1ccccc1)n2CCCN1CCCCC1C (stereo unspecified) ?
Ans: inactive

Q: Please indicate how the test categorized "O=c1cnc2cnc(N3CCOCC3)nc2n1CCc1ccccc1" .
Ans: inactive

Q: Dear colleague, could you share the recorded outcome for "COC(=O)N1CCC2(CC1)CN(c1ccccn1)C2" when you have a moment?
Ans: active

Q: For "COCCNc1ccnc(-c2cccc(NS(C)(=O)=O)c2)n1" , which call appears in the assay record?
Ans: inactive

Q: What call does the record list for "c1ccc(CNc2ccnc(-c3ccoc3)n2)cc1" ?
Ans: inactive

Q: For this compound, state the assay outcome: "Cn1cc(-c2nc3cnc(N4CCOCC4)nc3n(C3CC3)c2=O)c2ccccc21"
Ans: inactive

Q: # outcome recorded in this test, key = "COCCNc1ncnc2ccc(-c3cccc(NS(C)(=O)=O)c3)cc12"
Ans: inactive

Q: # lookup: test call for "c1ccc2c(N3CCNCC3)nc(-c3ccc4c(c3)OCO4)nc2c1"
Ans: inactive

Q: Could you kindly confirm the outcome this assay logged for "CCNc1ncc2nc(C)c(=O)n(Cc3ccc(F)cc3)c2n1" ?
Ans: inactive
